# ASSAYED TARGET: T1, residue mutated to A: D (6th column) (also: biotinylated, attachment site not given here)
# T1 construct: position from the legend (CFH1114-1121)
# T1 peptide: GPPPPIDNGAITSFP
# PROCEDURE DETAILS: ELISA on streptavidin-immobilized biotinylated 15mer peptides; area under the signal vs antibody concentration curve;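 note: antibody binding to each alanine-substituted peptide expressed relative to binding to the natural peptide, using curve area determined separately for every peptide-antibody pair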
Ends that are not written are not given here.
percent of binding to the natural peptide (AUC) reference

Consider the reported percent of binding to the natural peptide (AUC) for these binders:
BINDER	READING
CFH mAb7968 (antibody, V domains shown, also called CBAb1) VH: LVESGGGVVQPGRSLRLSCAASGFTFSRYGMHWVRQAPGKGLEWVAVMSYDGSTKYYADSVKGRFAISRDNPKNTLFLQMNSLRPDDTAVYYCAKGGAAAAVMDVWGKGTTVTVSS VL: MTQSPDSLTVSLGERATISCKSSQRLLYSSNNKNYLAWYQQKPGQPPKLLMYWASTRESGVPDRFSGSGSGTDFSLTISSLQAEDVAVYYCQQYYNPPWTFGQGTKVEVK	101%
Ab7957/293i (antibody, V domains shown, Recombinant human mAb) VH: LVESGGGVVPPGKSLRLSCAASGFTFSLYGIHWVRQAPGKGLEWVAVISYDGNTKYYTDSVKGRFTISRDNAKNTIYLQMNSLRLDDTAVYYCAKGAANSATFDFWGRGTMVTVSS VL: MTQSPDSLTLSLGERATINCRSSRTVLYRSNNKNYLAWYQHKPGQPPKLLMSWASTRETGVPDRFSGSGSGTHFTLTITSLQPEDVAVYYCQQYYSPPWTFGQGTKVEIR	102%
Ab7979 (antibody, V domains shown, Recombinant human mAb) VH: LVESGGGVVQPGKSLRLSCVASGFTFSTYGMHWVRQAPGKGLEWVAVMSFDGKTKYYADSVKGRFTISRDNPKNTLYLQMNSLRSEDTAVYYCAKGGAAAAVFDSWGQGILLTVSS VL: MTQSPNSLAVSLGGRATINCKTSQSILYRSNNKNYLAWYQHKPGQPPKLLIYWASTRESRVPDRFSGSGSRTDFTLTISGLQAEDVAVYYCQQYYNPPWTFGQGTKVEIK	98%

[ask] # lookup: percent of binding to the natural peptide (AUC) of Ab7961/293i (antibody, V domains shown, Recombinant human mAb) VH: LVESGGGVVQPGKSLRLSCVASGFTFSSYGMHWVRQAPGKGLEWVAVMSFDGKTKYYADSVKGRFTISRDNPKNTLYLQMNSLRSEDTAVYYCAKGGAAAAVFDSWGQGILLTVSS VL: MTQSPNSLAVSLGGRATINCKTSQSILYRSNNKNYLAWYQHKSGQPPKLLIYWASTRESGVPDRFSGSGSRTDFTLTISGLQAEDVAVYYCQQYYNPPWTFGQGTKVEIK
[reply] 105%

[ask] Param item = Ab7955 (antibody, V domains shown, Recombinant human mAb) VH: LVESGGGVVRPGRSLRLSCVASGFTFNAYGMHWVRQGPGKGLEWLAVISYEGKTVYYADSVKDRFTISRDNSRNTVSLHLNNLRGEDTAVYYCAKGSASAAVLQHWGQGTLVSVTS VL: MTQSPGSLAVSLGSRATINCKSSRSLLYRSNNKNYLAWYQQKPGQSPRLLIYWASSRESGVPDRFSGGGSGTSFTLTISSLQAEDVAVYYCQQYFNPPWTFGQGTKVEIK ; retrieve measured percent of binding to the natural peptide (AUC).
[reply] 103%

[ask] So what's the measured percent of binding to the natural peptide (AUC) for this one? Ab7960/293i (antibody, V domains shown, Recombinant human mAb) VH: LVESGGGVVQPGKSLRLSCVASGFSFSTYGMHWVRQAPGKGLEWVAVMSFDGKTKYYADSVKGRFTISRDNPKNTLYLQMNSLRSEDTAVYYCAKGGAAAAVFDSWGPGILLTVSS VL: MTQSPNSLAVSLGGRATINCKASQSILYRSNNKNYLAWYQHKAGQPPKLLIYWASTRESGVPERFSGSGSRTDFTLTINGLQAEDVAVYYCQQYYNPPWTFGQGTKVEIK
[reply] 99%
